src = ChEMBL document CHEMBL1153598

# System: Bacillus subtilis
# protocol text: Antibiotic activity against Bacillus subtilis NBRC 3513 by microplate dilution assay
# Type: functional
Entries and their MIC values follow.

A selection of reference data follows.
[[record]]
smiles_code = "CC(C)C[C@@H]1NC(=O)[C@H](CCCN)NC(=O)[C@H](C(C)C)NC(=O)[C@@H](CCCN)NC(=O)[C@@H]2CCCN2C(=O)[C@@H](Cc2ccccc2)NC(=O)[C@H](CC(C)C)NC(=O)[C@H](CCCN)NC(=O)[C@H](C(C)C)NC(=O)[C@@H](CCCN)NC(=O)[C@@H]2CCCN2C(=O)[C@@H](Cc2ccccc2)NC1=O"
assay_endpoint = "MIC"
assay_value = "6.25 µg/mL"

[[record]]
smiles_code = "CC(C)C[C@@H]1NC(=O)[C@H](CCCN)NC(=O)[C@H](C(C)C)NC(=O)[C@@H]([C@H](C)O)NC(=O)[C@@H]2CCCN2C(=O)[C@@H](Cc2ccccc2)NC(=O)[C@H](CC(C)C)NC(=O)[C@H](CCCN)NC(=O)[C@H](C(C)C)NC(=O)[C@@H]([C@H](C)O)NC(=O)[C@@H]2CCCN2C(=O)[C@@H](Cc2ccccc2)NC1=O"
assay_endpoint = "MIC"
assay_value = "100 µg/mL"


Field: next molecule
Data request: Which MIC value is on record for CC(C)C[C@@H]1NC(=O)[C@H](CCCN)NC(=O)[C@H](C(C)C)NC(=O)[C@@H](CCC(=O)O)NC(=O)[C@@H]2CCCN2C(=O)[C@@H](Cc2ccccc2)NC(=O)[C@H](CC(C)C)NC(=O)[C@H](CCCN)NC(=O)[C@H](C(C)C)NC(=O)[C@@H](CCC(=O)O)NC(=O)[C@@H]2CCCN2C(=O)[C@@H](Cc2ccccc2)NC1=O ?
Data returned: > 100 µg/mL

* * *

# System: Escherichia coli
# protocol text: Antibiotic activity against Escherichia coli NBRC 12734 by microplate dilution assay
# Type: functional
Non-standard residues stand in square brackets, D forms with d. Residues, ends and D or L forms follow the SMILES beside them. Orn = NCCC[C@H](N)C(=O)O
assay endpoint: MIC

A selection of reference data follows.
[[record]]
compound = "CC(C)C[C@@H]1NC(=O)[C@H](CCCN)NC(=O)[C@H](C(C)C)NC(=O)[C@@H]2CCCN2C(=O)[C@@H](Cc2ccccc2)NC(=O)[C@H](CC(C)C)NC(=O)[C@H](CCCN)NC(=O)[C@H](C(C)C)NC(=O)[C@@H]2CCCN2C(=O)[C@@H](Cc2ccccc2)NC1=O [GRAMICIDIN S] (cyclo(L[dF]PV[Orn]L[dF]PV[Orn]))"
assay_endpoint = "MIC"
assay_value = "25 µg/mL"

[[record]]
compound = "CC(C)C[C@@H]1NC(=O)[C@H](CCCN)NC(=O)[C@H](C(C)C)NC(=O)[C@@H](C)NC(=O)[C@@H]2CCCN2C(=O)[C@@H](Cc2ccccc2)NC(=O)[C@H](CC(C)C)NC(=O)[C@H](CCCN)NC(=O)[C@H](C(C)C)NC(=O)[C@@H](C)NC(=O)[C@@H]2CCCN2C(=O)[C@@H](Cc2ccccc2)NC1=O (cyclo(L[dF]P[dA]V[Orn]L[dF]P[dA]V[Orn]))"
assay_endpoint = "MIC"
assay_value = "> 100 µg/mL"

[[record]]
compound = "CC(C)C[C@@H]1NC(=O)[C@H](CCCN)NC(=O)[C@H](C(C)C)NC(=O)[C@@H](CCCNC(=N)N)NC(=O)[C@@H]2CCCN2C(=O)[C@@H](Cc2ccccc2)NC(=O)[C@H](CC(C)C)NC(=O)[C@H](CCCN)NC(=O)[C@H](C(C)C)NC(=O)[C@@H](CCCNC(=N)N)NC(=O)[C@@H]2CCCN2C(=O)[C@@H](Cc2ccccc2)NC1=O"
assay_endpoint = "MIC"
assay_value = "12.5 µg/mL"

[[record]]
compound = "CCC[C@H]1NC(=O)[C@@H]2CCCN2C(=O)[C@@H](Cc2ccccc2)NC(=O)[C@H](CC(C)C)NC(=O)[C@H](CCCN)NC(=O)[C@H](C(C)C)NC(=O)[C@@H](CCC)NC(=O)[C@@H]2CCCN2C(=O)[C@@H](Cc2ccccc2)NC(=O)[C@H](CC(C)C)NC(=O)[C@H](CCCN)NC(=O)[C@H](C(C)C)NC1=O"
assay_endpoint = "MIC"
assay_value = "> 100 µg/mL"

[[record]]
compound = "CC(C)C[C@@H]1NC(=O)[C@H](CCCN)NC(=O)[C@H](C(C)C)NC(=O)[C@@H](Cc2ccc(O)cc2)NC(=O)[C@@H]2CCCN2C(=O)[C@@H](Cc2ccccc2)NC(=O)[C@H](CC(C)C)NC(=O)[C@H](CCCN)NC(=O)[C@H](C(C)C)NC(=O)[C@@H](Cc2ccc(O)cc2)NC(=O)[C@@H]2CCCN2C(=O)[C@@H](Cc2ccccc2)NC1=O"
assay_endpoint = "MIC"
assay_value = "100 µg/mL"

[[record]]
compound = "CC(C)C[C@@H]1NC(=O)[C@H](CCCN)NC(=O)[C@H](C(C)C)NC(=O)[C@@H](Cc2cnc[nH]2)NC(=O)[C@@H]2CCCN2C(=O)[C@@H](Cc2ccccc2)NC(=O)[C@H](CC(C)C)NC(=O)[C@H](CCCN)NC(=O)[C@H](C(C)C)NC(=O)[C@@H](Cc2cnc[nH]2)NC(=O)[C@@H]2CCCN2C(=O)[C@@H](Cc2ccccc2)NC1=O"
assay_endpoint = "MIC"
assay_value = "> 100 µg/mL"

[[record]]
compound = "CC(C)C[C@@H]1NC(=O)[C@H](CCCN)NC(=O)[C@H](C(C)C)NC(=O)[C@@H](Cc2ccccc2)NC(=O)[C@@H]2CCCN2C(=O)[C@@H](Cc2ccccc2)NC(=O)[C@H](CC(C)C)NC(=O)[C@H](CCCN)NC(=O)[C@H](C(C)C)NC(=O)[C@@H](Cc2ccccc2)NC(=O)[C@@H]2CCCN2C(=O)[C@@H](Cc2ccccc2)NC1=O"
assay_endpoint = "MIC"
assay_value = "> 100 µg/mL"

[[record]]
compound = "CC(C)C[C@@H]1NC(=O)[C@H](CCCN)NC(=O)[C@H](C(C)C)NC(=O)CNC(=O)[C@@H]2CCCN2C(=O)[C@@H](Cc2ccccc2)NC(=O)[C@H](CC(C)C)NC(=O)[C@H](CCCN)NC(=O)[C@H](C(C)C)NC(=O)CNC(=O)[C@@H]2CCCN2C(=O)[C@@H](Cc2ccccc2)NC1=O"
assay_endpoint = "MIC"
assay_value = "> 100 µg/mL"


Data request: Which MIC value is on record for CCCC[C@H]1NC(=O)[C@@H]2CCCN2C(=O)[C@@H](Cc2ccccc2)NC(=O)[C@H](CC(C)C)NC(=O)[C@H](CCCN)NC(=O)[C@H](C(C)C)NC(=O)[C@@H](CCCC)NC(=O)[C@@H]2CCCN2C(=O)[C@@H](Cc2ccccc2)NC(=O)[C@H](CC(C)C)NC(=O)[C@H](CCCN)NC(=O)[C@H](C(C)C)NC1=O ?
Data returned: 100 µg/mL

Data request: Which MIC value is on record for CC(C)C[C@@H]1NC(=O)[C@H](CCCN)NC(=O)[C@H](C(C)C)NC(=O)[C@@H](C(C)C)NC(=O)[C@@H]2CCCN2C(=O)[C@@H](Cc2ccccc2)NC(=O)[C@H](CC(C)C)NC(=O)[C@H](CCCN)NC(=O)[C@H](C(C)C)NC(=O)[C@@H](C(C)C)NC(=O)[C@@H]2CCCN2C(=O)[C@@H](Cc2ccccc2)NC1=O ?
Data returned: > 100 µg/mL

Data request: Which MIC value is on record for CC(C)C[C@@H]1NC(=O)[C@H](CCCN)NC(=O)[C@H](C(C)C)NC(=O)[C@@H](CC(C)C)NC(=O)[C@@H]2CCCN2C(=O)[C@@H](Cc2ccccc2)NC(=O)[C@H](CC(C)C)NC(=O)[C@H](CCCN)NC(=O)[C@H](C(C)C)NC(=O)[C@@H](CC(C)C)NC(=O)[C@@H]2CCCN2C(=O)[C@@H](Cc2ccccc2)NC1=O ?
Data returned: > 100 µg/mL

Data request: Which MIC value is on record for CC(C)C[C@@H]1NC(=O)[C@H](CCCN)NC(=O)[C@H](C(C)C)NC(=O)[C@@H]([C@H](C)O)NC(=O)[C@@H]2CCCN2C(=O)[C@@H](Cc2ccccc2)NC(=O)[C@H](CC(C)C)NC(=O)[C@H](CCCN)NC(=O)[C@H](C(C)C)NC(=O)[C@@H]([C@H](C)O)NC(=O)[C@@H]2CCCN2C(=O)[C@@H](Cc2ccccc2)NC1=O ?
Data returned: > 100 µg/mL

Data request: Which MIC value is on record for CC(C)C[C@@H]1NC(=O)[C@H](CCCN)NC(=O)[C@H](C(C)C)NC(=O)[C@@H](CO)NC(=O)[C@@H]2CCCN2C(=O)[C@@H](Cc2ccccc2)NC(=O)[C@H](CC(C)C)NC(=O)[C@H](CCCN)NC(=O)[C@H](C(C)C)NC(=O)[C@@H](CO)NC(=O)[C@@H]2CCCN2C(=O)[C@@H](Cc2ccccc2)NC1=O ?
Data returned: > 100 µg/mL
